Molecular target: Vanin-1 in SUIT-S2 cell line (Homo sapiens, UniProt O95497)
Construct: endogenous in cells
Experiment: Vanin-1 cell-based mechanistic assay (fluorescence intensity, Pantothenate-AMC substrate)
Details: 40000 cells per well, 2 hours incubation at 37° C., Pantothenate-AMC 30 μM, 30 min
Protocol: Vanin-1 Cell-Based Mechanistic Assay: The cellular activity of the examples is measured in 96-well format based on fluorescence intensity assay using SUIT-S2 cell line (ATCC # CRL1596). Cells are cultured at 37° C. with 5% CO2 to 80-90% confluence and then washed once with phosphate-buffered saline (PBS). […] After 30 minutes of incubation at 30° C. with gentle agitation, fluorescence intensity is measured at λex=350 nm and λem=450 nm with a fluorescence reader (BMG PHERAstar reader or equivalent).
pIC50: −log10 of the molar value.
Measurement label: pIC50

Example entries and their recorded answers appear below.
- Entry smiles: "CC(C)(CO)[C@@H](O)C(=O)NCCN(CC1CCN(c2ccc(C#N)cc2)CC1)C(=O)CCl"
  pIC50: 6.68
- Entry smiles: "CC(C)(CO)[C@@H](O)C(=O)NCCC(=O)C(=O)NCc1ccccc1"
  pIC50: 7.52
- Entry smiles: "CC(C)(CO)[C@@H](O)C(=O)NCCC(=O)C(=O)NCc1ccc(F)cc1"
  pIC50: 7.70

[I] CC(C)(CO)[C@@H](O)C(=O)NCCC(=O)C(=O)NCc1ccccc1F
[II] CC(C)(CO)[C@@H](O)C(=O)NCCC(=O)C(=O)NCc1ccc(-c2ccccc2)cc1
[III] CC(C)(CO)[C@@H](O)C(=O)NCCC(=O)C(=O)NCc1cccc2ccccc12
[IV] CC(C)(CO)[C@@H](O)C(=O)NCCC(=O)C(=O)NCc1cccc(OCCNS(C)(=O)=O)c1
[V] CC(C)(CO)[C@@H](O)C(=O)NCCN(CCc1ccccc1)C(=O)CCl
Reorder the items by pIC50, least to greatest. Returns: the labels listed in the requested order.
V, IV, II, III, I
(V: 5.92, IV: 6.59, II: 7.00, III: 7.30, I: 7.60)

###

target: Vanin-1 in SUIT-S2 cell line (Homo sapiens); construct: endogenous in cells; assay: Vanin-1 cell-based mechanistic assay (fluorescence intensity, Pantothenate-AMC substrate); settings: 40000 cells per well, 2 hours incubation at 37° C., Pantothenate-AMC 30 μM, 30 min
Measurement label: IC50 (nM)

[P] CC(C)(CO)[C@@H](O)C(=O)NCCC(=O)C(=O)NC1CC1
[Q] CC(C)(CO)[C@@H](O)C(=O)NCCN(Cc1ccccc1)C(=O)CCl
[R] C=CC(=O)CCNC(=O)[C@H](O)C(C)(C)CO
Arrange the 3 entries by IC50 so the values rise. Returns: the labels listed in the requested order.
Q, R, P
(Q: 600 nM, R: 1270 nM, P: 3540 nM)

###

molecular target: Human recombinant Vanin-1 (VNN1) (Homo sapiens, UniProt O95497); assay: Vanin-1 enzymatic assay (fluorescence intensity, Pantothenate-AMC substrate); conditions: purified recombinant human Vanin-1 0.5 nM; 30 min preincubation at 30° C.; Pantothenate-AMC 30 μM, 60 min
Measurement label: IC50 (nM)

[1] CC(=O)/C=C/CCNC(=O)[C@H](O)C(C)(C)CO
[2] CC(C)(CO)[C@@H](O)C(=O)NCCC(=O)C(=O)NCc1ccc(C(=O)O)cc1
Please indicate which item has the smaller measured IC50: 1 versus 2 Give the label under which the chosen entry appears.
2

[1] CC(C)(CO)[C@@H](O)C(=O)NCCC(=O)C(=O)NCCCc1ccc(S(=O)(=O)N2CCCCC2)cc1
[2] CC(NC(=O)C(=O)CCNC(=O)[C@H](O)C(C)(C)CO)c1ccccc1 (stereo partly shown)
Please indicate which item has the smaller measured IC50: 1 versus 2 Give the label under which the chosen entry appears.
1

###

Biological target: Vanin-1 in SUIT-S2 cell line (Homo sapiens, UniProt O95497)
Construct: endogenous in cells
Sequence (O95497 22-491): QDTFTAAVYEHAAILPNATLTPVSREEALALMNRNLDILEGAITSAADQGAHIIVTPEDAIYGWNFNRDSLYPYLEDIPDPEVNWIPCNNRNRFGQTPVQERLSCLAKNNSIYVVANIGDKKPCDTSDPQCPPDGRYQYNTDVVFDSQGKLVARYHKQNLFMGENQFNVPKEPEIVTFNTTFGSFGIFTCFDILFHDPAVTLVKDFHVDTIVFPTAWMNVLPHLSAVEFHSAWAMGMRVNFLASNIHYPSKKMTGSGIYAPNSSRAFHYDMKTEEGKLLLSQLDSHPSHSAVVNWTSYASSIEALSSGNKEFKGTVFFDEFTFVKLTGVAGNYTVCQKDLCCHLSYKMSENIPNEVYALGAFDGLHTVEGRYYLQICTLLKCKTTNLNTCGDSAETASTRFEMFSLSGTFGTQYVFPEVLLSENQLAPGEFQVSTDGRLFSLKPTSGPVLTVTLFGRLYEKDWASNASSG
Test: Vanin-1 cell-based mechanistic assay (fluorescence intensity, Pantothenate-AMC substrate)
Details: 40000 cells per well, 2 hours incubation at 37° C., Pantothenate-AMC 30 μM, 30 min
pIC50: −log10 of the molar value.
Measurement label: pIC50

Example entries and their recorded answers appear below.
- Entry smiles: "CC(C)(CO)[C@@H](O)C(=O)NCCC(=O)C(N)=O"
  pIC50: 5.83
- Entry smiles: "CC(C)(CO)[C@@H](O)C(=O)NCCC(=O)C(=O)NCc1ccccc1C(F)(F)F"
  pIC50: 7.30
- Entry smiles: "COc1cccc(CNC(=O)C(=O)CCNC(=O)[C@H](O)C(C)(C)CO)c1"
  pIC50: 7.52
- Entry smiles: "CC(C)(CO)[C@@H](O)C(=O)NCC/C=C/C(=O)CCc1ccccc1"
  pIC50: 6.17

[A] CC(C)(CO)[C@@H](O)C(=O)NCCN(CCOc1ccc(C#N)cc1)C(=O)CCl
[B] CC(C)(CO)[C@@H](O)C(=O)NCCC(=O)/C=C/Cc1ccccc1
Pick one: A or B . Which has the bigger pIC50 number? Give the label under which the chosen entry appears.
A
(A: 6.66, B: 5.92)

[1] CC(C)(CO)[C@@H](O)C(=O)NCCN(CCCc1ccccc1)C(=O)CCl
[2] CC(=O)/C=C/CCNC(=O)[C@H](O)C(C)(C)CO
[3] CC(C)(CO)[C@@H](O)C(=O)NCCNC(=O)CCl
[4] CC(C)(CO)[C@@H](O)C(=O)NCCC(=O)C(=O)NCCc1cccs1
Reorder the items by pIC50, least to greatest. Returns: the labels listed in the requested order.
2, 3, 1, 4
(2: 5.49, 3: 5.95, 1: 6.66, 4: 7.05)

[I] CC(C)(CO)[C@@H](O)C(=O)NCCC(=O)C(=O)NCc1cccc(OC(F)(F)F)c1
[II] CC(C)(CO)[C@@H](O)C(=O)NCCC(=O)C(=O)NCc1ccc(Br)cc1
Please indicate which item has the smaller measured pIC50: I versus II Give the label under which the chosen entry appears.
I
(I: 6.85, II: 8.00)

###

biological target: Human recombinant Vanin-1 (VNN1) (Homo sapiens, UniProt O95497); construct: purchased Sino Biological Inc. 11662-H08H; assay: Vanin-1 enzymatic assay (fluorescence intensity, Pantothenate-AMC substrate); format: biochemical; settings: purified recombinant human Vanin-1 0.5 nM; 30 min preincubation at 30° C.; Pantothenate-AMC 30 μM, 60 min
Measurement label: IC50 (nM)

Example entries and their recorded answers appear below.
- Compound: "CC(C)(CO)[C@@H](O)C(=O)NCCNC(=O)CCl [Example 57]"
  Endpoint value: 2540
- Compound: "COc1cccc(CNC(=O)C(=O)CCNC(=O)[C@H](O)C(C)(C)CO)c1 [Example 22]"
  Endpoint value: 60
- Compound: "COC(=O)c1ccc(OCCN(CCNC(=O)[C@H](O)C(C)(C)CO)C(=O)CCl)cc1 [Example 65]"
  Endpoint value: 3990

[1] CC(C)(CO)[C@@H](O)C(=O)NCCC(=O)C(=O)NC1CC1 [Example 8]
[2] CC(C)(CO)[C@@H](O)C(=O)NCCN(CCOc1ccccc1)C(=O)CCl [Example 63]
Pick one: 1 or 2 . Which has the bigger IC50 number? Give the label under which the chosen entry appears.
2

[A] CC(C)(CO)[C@@H](O)C(=O)NCCC(=O)C(=O)NC(c1ccccc1)c1ccccc1 [Example 21]
[B] CC(C)(CO)[C@@H](O)C(=O)NCCC(=O)C(=O)NCc1ccc(F)cc1 [Example 17]
Pick one: A or B . Which has the bigger IC50 number? Give the label under which the chosen entry appears.
A
(A: 11500 nM, B: 30 nM)

[P] CC(C)(CO)[C@@H](O)C(=O)NCCC(=O)C(=O)NCC1CCN(S(=O)(=O)c2ccccc2)CC1 [Example 34]
[Q] CC(C)(CO)[C@@H](O)C(=O)NCCC(=O)C(=O)NCC1CCN(S(=O)(=O)Cc2cccc(F)c2)CC1 [Example 52]
Pick one: P or Q . Which has the bigger IC50 number? Give the label under which the chosen entry appears.
Q

[1] CN(Cc1ccccc1)C(=O)C(=O)CCNC(=O)[C@H](O)C(C)(C)CO [Example 27]
[2] CC(C)(CO)[C@@H](O)C(=O)NCCC(=O)C(=O)NCc1ccc(OCCNS(C)(=O)=O)cc1 [Example 39]
Pick one: 1 or 2 . Which has the bigger IC50 number? Give the label under which the chosen entry appears.
1
(1: 9730 nM, 2: 20 nM)
